Cited source for all entries: BindingDB's records for doi:10.1016/s0960-894x(03)00205-1

test: Potassium channel opening activity in vitro using LtK cells transfected with Kir6.2/SUR2B exon 17
measurement-type: EC50

- Cc1ccccc1C(=O)Nc1c(C(O)(C(F)(F)F)C(F)(F)F)ccc2ccccc12: 5550 nM
- CC(C)=CC(=O)Nc1c(C(O)(C(F)(F)F)C(F)(F)F)ccc2ccccc12: 46 nM
- O=C(Nc1c(C(O)(C(F)(F)F)C(F)(F)F)ccc2ccccc12)c1cnc2ccccc2n1: 317 nM
- O=C(Nc1c(C(O)(C(F)(F)F)C(F)(F)F)ccc2ccccc12)c1cccc(F)c1: 44 nM
- O=C(NCCCCCCCl)Nc1c(C(O)(C(F)(F)F)C(F)(F)F)ccc2ccccc12: 4840 nM
- CCCC(=O)Nc1c(C(O)(C(F)(F)F)C(F)(F)F)ccc2ccccc12: 131 nM
